tested on: Phakopsora pachyrhizi (the causal agent of Asian soybean rust); experiment: Test A: preventive spray on soybean seedlings, Asian soybean rust, visual disease rating; assay type: in vivo; conditions: test suspension 10 ppm; soybean seedlings; 100 = 100% disease control, 0 = no control
assay readout: Test A disease control rating (%)
Could you give me the number in %? Just the number is fine.

molecule=O=C(NC1CC1)c1csc(Cc2ccc(-c3noc(C(F)(F)F)n3)cc2)n1 assay_readout="Test A disease control rating" result_value=100
molecule=COC(=O)c1ccc2nn(Cc3ccc(-c4noc(C(F)(F)F)n4)cc3)cc2c1 assay_readout="Test A disease control rating" result_value=100
molecule=CC(C)=CCOC(=O)c1cnn(Cc2ccc(-c3noc(C(F)(F)F)n3)cc2)c1 assay_readout="Test A disease control rating" result_value=100
molecule=O=C(OCC#Cc1ccccc1)c1cnn(Cc2ccc(-c3noc(C(F)(F)F)n3)cc2)c1 assay_readout="Test A disease control rating" result_value=100
molecule=N#CCCCOC(=O)c1cnn(Cc2ccc(-c3noc(C(F)(F)F)n3)cc2)c1 assay_readout="Test A disease control rating" result_value=100
molecule="CCOC(=O)c1cnn(C(C)c2ccc(-c3noc(C(F)(F)F)n3)s2)c1 (centres unmarked) [compound 247]" assay_readout="Test A disease control rating" result_value=100
molecule=CNC(=O)c1nn(Cc2ccc(-c3noc(C(F)(F)F)n3)cc2)c2ccccc12 assay_readout="Test A disease control rating" result_value=100
molecule=Cc1cc(C(=O)NCC#N)nn1Cc1ccc(-c2noc(C(F)(F)F)n2)cc1 assay_readout="Test A disease control rating" result_value=100

The molecule listed as CCOC(=O)c1cnn(C(C)c2ccc(-c3noc(C(F)(F)F)n3)s2)c1 (centres unmarked) [Compound 192] has a reported Test A disease control rating of 100

Lab note: measured Test A disease control rating of CC(=O)COC(=O)c1cnn(Cc2ccc(-c3noc(C(F)(F)F)n3)cc2)c1 was 100

So, FC(F)(F)c1nc(-c2ccc(OCc3nc4ncccc4o3)cc2)no1 ? Its Test A disease control rating was 97

====

system: Phakopsora pachyrhizi (the causal agent of Asian soybean rust); assay: Test A: preventive spray on soybean seedlings, Asian soybean rust, visual disease rating; assay type: in vivo; conditions: test suspension 10 ppm; soybean seedlings; 100 = 100% disease control, 0 = no control
Below, each entry is listed alongside its reported Test A disease control rating.
Lab book: enter the figure in %, no units written.

compound="FC(F)(F)c1nc(-c2ccc(OCc3cn4ccccc4n3)cc2)no1 [compound 313]" experimental_system="Phakopsora pachyrhizi (the causal agent of Asian soybean rust)" measurement_units=% result_value=77
compound="CCNC(=O)c1ccc(COc2ccc(-c3noc(C(F)(F)F)n3)cc2)s1 [compound 352]" experimental_system="Phakopsora pachyrhizi (the causal agent of Asian soybean rust)" measurement_units=% result_value=87
compound="CC(C)COC(=O)c1cnn(Cc2ccc(-c3noc(C(F)(F)F)n3)cc2)c1 [compound 171]" experimental_system="Phakopsora pachyrhizi (the causal agent of Asian soybean rust)" measurement_units=% result_value=100
compound="N#CCNC(=O)c1nn(Cc2ccc(-c3noc(C(F)(F)F)n3)cc2)c2ccccc12 [compound 44]" experimental_system="Phakopsora pachyrhizi (the causal agent of Asian soybean rust)" measurement_units=% result_value=100
compound="Cc1cc(C(=O)O)nn1Cc1ccc(-c2noc(C(F)(F)F)n2)cc1 [compound 179]" experimental_system="Phakopsora pachyrhizi (the causal agent of Asian soybean rust)" measurement_units=% result_value=98
compound="COCCNC(=O)c1coc(Cc2ccc(-c3noc(C(F)(F)F)n3)cc2)c1 [compound 292]" experimental_system="Phakopsora pachyrhizi (the causal agent of Asian soybean rust)" measurement_units=% result_value=100
compound="CCOC(=O)c1cc(CC)n(Cc2ccc(-c3noc(C(F)(F)F)n3)cc2)n1 [compound 79]" experimental_system="Phakopsora pachyrhizi (the causal agent of Asian soybean rust)" measurement_units=% result_value=100

Read the next record carefully.
Field Test A disease control rating (Phakopsora pachyrhizi (the causal agent of Asian soybean rust)), entry N#Cc1ccc(COC(=O)c2cnn(Cc3ccc(-c4noc(C(F)(F)F)n4)cc3)c2)cc1 [compound 301] : 100

====

test system: Zymoseptoria tritici (the causal agent of wheat leaf blotch); assay: Test B: preventive spray on wheat seedlings, wheat leaf blotch, visual disease rating; assay type: in vivo; details: test suspension 250 ppm; wheat seedlings
Marks after values point to notes of the source that are not given here.
Below, each of the molecules is paired with its reported Test B disease control rating value.

molecule="N#Cc1ccn(Cc2ccc(-c3noc(C(F)(F)F)n3)cc2)c(=O)c1 [compound 89]" assay_readout="Test B disease control rating" result_value=83%
molecule="CN(C)N1C(=O)C(Cl)=C(Oc2ccc(-c3noc(C(F)(F)F)n3)cc2)C1=O [compound 356]" assay_readout="Test B disease control rating" result_value="96* %"
molecule="N#CCNC(=O)c1cccc(Cc2ccc(-c3noc(C(F)(F)F)n3)cc2)c1 [compound 285]" assay_readout="Test B disease control rating" result_value="94* %"
molecule="O=C(C1=NOC(Cc2ccc(-c3noc(C(F)(F)F)n3)cc2)C1)N1CCC1 (centres unmarked) [compound 177]" assay_readout="Test B disease control rating" result_value=97%
molecule="CCOC(=O)c1cnn(CCn2cc(-c3noc(C(F)(F)F)n3)cn2)c1 [compound 307]" assay_readout="Test B disease control rating" result_value="0* %"

Given item CCOC(=O)c1cnn(Cn2nc(-c3noc(C(F)(F)F)n3)ccc2=O)c1 [compound 346] , the value recorded as its Test B disease control rating is 0* %

Consider O=C(NCC1CC1)c1coc(Cc2ccc(-c3noc(C(F)(F)F)n3)cc2)n1 [compound 327] . Its measured Test B disease control rating is 94* %

Value of Test B disease control rating reported for the molecule CCCOC(=O)c1cnn(Cc2ccc(-c3noc(C(F)(F)F)n3)o2)c1 [compound 211] is 70* %

CC(C)(NC(=O)c1coc(Cc2ccc(-c3noc(C(F)(F)F)n3)cc2)n1)C(F)(F)F [compound 331] yielded Test B disease control rating of 97* %

Form: molecule = C=CCOC(=O)c1coc(Cc2ccc(-c3noc(C(F)(F)F)n3)cc2)n1 [compound 334] ; Test B disease control rating = 92* %

Value of Test B disease control rating reported for the molecule CN(C)C(=O)C1=NOC(Cn2cc(-c3noc(C(F)(F)F)n3)cn2)C1 (centres unmarked) [compound 306] is 10* %

Per the record, FC(F)(F)c1nc(-c2ccc(CN3CCOCC3)cc2)no1 [compound 96] has Test B disease control rating of 0%

For record O=C1COCCN1Cc1ccc(-c2noc(C(F)(F)F)n2)cc1 [compound 372] the listed Test B disease control rating is 99* %

// Test B disease control rating value for O=S1(=O)CCCN1Cc1ccc(-c2noc(C(F)(F)F)n2)cc1 [compound 322] : 95* %

====

system: Phakopsora pachyrhizi (the causal agent of Asian soybean rust); test: Test A: preventive spray on soybean seedlings, Asian soybean rust, visual disease rating; assay type: in vivo; conditions: test suspension 10 ppm; soybean seedlings; 100 = 100% disease control, 0 = no control
assay readout: Test A disease control rating (%)
All answers are understood in %, so give the number only.

compound=CCCOC(=O)c1cnn(Cc2cc(-c3noc(C(F)(F)F)n3)cs2)c1 measurement_units=% result_value=100

For reference, reported Test A disease control rating for CCOC(=O)c1cnn(Cc2cc(-c3noc(C(F)(F)F)n3)cs2)c1 stands at 99

Noted for CCCOC(=O)c1cnn(COc2ccc(-c3noc(C(F)(F)F)n3)cc2)c1 : its Test A disease control rating reads 100

Per the record, Cc1noc(C)c1COc1ccc(-c2noc(C(F)(F)F)n2)cc1 has Test A disease control rating of 99

Test A disease control rating for Cc1cc(C(=O)OCC#N)nn1Cc1ccc(-c2noc(C(F)(F)F)n2)cc1 [compound 184] is 100

Measured Test A disease control rating of O=c1ccc2ccccc2n1Cc1ccc(-c2noc(C(F)(F)F)n2)cc1 : 100

Measured Test A disease control rating of C[Si](C)(C)CCNC(=O)c1coc(Cc2ccc(-c3noc(C(F)(F)F)n3)cc2)n1 : 98

Per the records, this compound ( COc1ccc2c(C#N)n(Cc3ccc(-c4noc(C(F)(F)F)n4)cc3)nc2c1 ) has Test A disease control rating equal to 87

Value of Test A disease control rating reported for the compound N#CC1(NC(=O)c2cnn(Cc3ccc(-c4noc(C(F)(F)F)n4)cc3)c2)CC1 is 100

According to the records, this compound CN(C)C(=O)c1nn(Cc2ccc(-c3noc(C(F)(F)F)n3)cc2)c2ccccc12 displays Test A disease control rating of 100

Entry under test: CCCNC(=O)c1cnn(Cc2ccc(-c3noc(C(F)(F)F)n3)cc2)c1 . Its Test A disease control rating was 100

Field Test A disease control rating (entry O=Cc1cnn(Cc2ccc(-c3noc(C(F)(F)F)n3)s2)c1 ) reads 99

Memo: COC(CNC(=O)c1coc(Cc2ccc(-c3noc(C(F)(F)F)n3)cc2)n1)OC , reported Test A disease control rating: 100
